Each record here notes measured CC50.
test: in vitro; conditions: dog, Cytotoxicity (pCC50) MDCK

- MOLECULE: "Cn1nnc([C@@H](c2ccccc2)N2CCN(C(=O)c3cc(-c4nc5cc(OC(F)(F)F)ccc5o4)ccn3)CC2)n1 [Example 133]"
  CC50: "> 50.1 µM"
- MOLECULE: "COC(=O)C(c1ccccc1)N1C[C@H]2CC[C@@H](C1)N2C(=O)c1cccc(-c2nc3ccc(OC)cc3s2)c1 (stereo partly drawn) [Example 88]"
  CC50: "> 50.1 µM"

Please look at the following molecule next.
Given the molecule CC(=O)Nc1ccc2oc(-c3cccc(C(=O)N4CCN(C(c5ccccc5)c5n[nH]c(C)n5)CC4)c3)nc2c1 (stereo not drawn) [Example 6] , what is its reported CC50? > 50.1 µM

====

biological target: HA H1 A/New Caledonia/20/99 (Influenza A virus (A/New Caledonia/20/1999(H1N1)), UniProt Q6WG00); assay: biochemical; details: Competition binding (AlphaLISA), pIC50 H1 A/New Caledonia/20/99
EXPERIMENTAL READOUT: IC50 (nM)
Answer in nM, number only, no unit symbol.

- COMPOUND: "COC(=O)C(c1ccccc1)N1C[C@H]2CC[C@@H](C1)N2C(=O)c1cccc(-c2nc3ccc(OC)cc3s2)c1 (stereo partly shown)"
  EXPERIMENTAL READOUT: "IC50"
  UNIT STRING: "nM"
  VALUE MEASURED: 126
- COMPOUND: "NCc1nnc(C(c2ccccc2)N2CCN(C(=O)c3cccc(-c4nc5cc(C(F)(F)F)ccc5o4)c3)CC2)o1 (stereo not shown)"
  EXPERIMENTAL READOUT: "IC50"
  UNIT STRING: "nM"
  VALUE MEASURED: 158
- COMPOUND: "COc1ccc2nc(-c3cccc(C(=O)N4CCN([C@@H](c5ccccc5)c5nnc(C)o5)CC4)c3)sc2c1"
  EXPERIMENTAL READOUT: "IC50"
  UNIT STRING: "nM"
  VALUE MEASURED: 79.4

Please look at the following compound next.
Given the compound COC(=O)[C@H](c1ccccc1)N1CCN(C(=O)c2cccc(-c3nc4cc(C(F)(F)F)ccc4o3)c2)[C@@H](C(N)=O)C1 , what is its reported IC50? 100

====

Each record here notes measured pIC50.
molecular target: HA H1 A/New Caledonia/20/99 (Influenza A virus (A/New Caledonia/20/1999(H1N1)), UniProt Q6WG00); assay: biochemical; conditions: Competition binding (AlphaLISA), pIC50 H1 A/New Caledonia/20/99
Please report pIC50 as the negative decimal logarithm of the molar concentration, giving only the number.

Below, each entry is followed by its recorded pIC50 result.
- COMPOUND: "COC(=O)[C@@H](c1ccccc1)N1CCN(C(=O)c2cccc(-c3nc4cc(C(F)(F)F)ccc4o3)c2)[C@H](C(N)=O)C1 [Example 113]"
  VALUE MEASURED: 6.20
- COMPOUND: "CC(=O)Nc1ccc2oc(-c3cccc(C(=O)N4CCN(C(c5ccccc5)c5n[nH]c(C)n5)CC4)c3)nc2c1 (stereo not drawn) [Example 6]"
  VALUE MEASURED: 8.00
- COMPOUND: "Cc1nnc(C(c2ccccc2)N2CCN(C(=O)c3cccc(-c4nc5cc(F)ccc5o4)c3)CC2)o1 (stereo not drawn) [Example 47]"
  VALUE MEASURED: 7.10

Given the compound COC(=O)C(c1ccccc1)N1CCN(C(=O)c2cccc(-c3nc4ccc(OC)cc4[nH]3)c2)CC1 (stereo not drawn) [Example 121] , what is its reported pIC50? 6.90

Given the compound COC(=O)C(c1ccccc1)N1CCN(C(=O)c2cccc(-c3ccc(OC)cc3)c2)CC1 (stereo not drawn) [Example 128] , what is its reported pIC50? 6.80

Given the compound CC(=O)Nc1ccc2oc(-c3cccc(C(=O)N4CCN(C(c5ccccc5)c5nnc(C)o5)CC4)c3)nc2c1 (stereo not drawn) [Example 51] , what is its reported pIC50? 7.90
